Data provenance: PubChem BioAssay (NCATS)

- protocol: Quantitative High-Throughput drug screen in 47 multiple myeloma cell lines against the NCATS MIPE library collection: MMM1_PLB cell viability assay (AID 1918976); note: nearly all actives have a fitted effect of over 35% in size; note: potency is the fitted concentration of half-maximal effect
- condition set: MMM1 myeloma cells viability, CellTiter-Glo, 48 h; series mostly up to 45.8 µM
Results filed as inconclusive are left out. The source made the active and inactive calls. Calls come from the whole dose curve; as a rule, active = well fitted cell-killing curve with a large enough effect; inconclusive = small, poorly fitted or top-dose-only effect, or effect the other way; inactive = no such curve, though single readings can be large or run the other way.
quantity measured: Potency

Sample records with Potency:
CCOc1cc2c(c(F)c1OCC)C(=N)N(CC(=O)c1cc(N3CCOCC3)c(OC)c(C(C)(C)C)c1)C2 10.5 µM (active)
N#CC(=C(N)Sc1ccc(N)cc1)c1ccccc1C(F)(F)F inactive
CN1C(C(=O)Nc2ccccn2)=C(O)c2sc(Cl)cc2S1(=O)=O 20.9 µM (active)
CC(=O)ON=C1C(c2c(O)[nH]c3cc(Br)ccc23)=Nc2ccccc21 20.9 µM (active)
C=CC[C@@H]1C=C(C)C[C@H](C)C[C@H](OC)[C@H]2O[C@@](O)(C(=O)C(=O)N3CCCC[C@H]3C(=O)O[C@H](C(C)=C[C@@H]3CC[C@H](O)[C@H](OC)C3)[C@@H](C)[C@@H](O)CC1=O)[C@@H](C)C[C@@H]2OC 3.32 µM (active)

Query molecule follows.
# input // query Potency value for entry `N#CC(=C(O)c1ccc(Cl)cc1Cl)c1nc2cc(Cl)ccc2c(=O)[nH]1`
# output inactive

----------
- protocol: Quantitative High-Throughput drug screen in 47 multiple myeloma cell lines against the NCATS MIPE library collection: AMO1_DSMZ cell viability assay (AID 1918927; note: nearly all actives have a fitted effect of over 30% in size)
- condition set: AMO1 myeloma cells viability, CellTiter-Glo ATP luminescence, 48 h; series mostly up to 45.8 µM
Results filed as inconclusive are left out. Calls of active or inactive are those of the source. Calls come from the whole dose curve; as a rule, active = well fitted cell-killing curve with a large enough effect; inconclusive = small, poorly fitted or top-dose-only effect, or effect the other way; inactive = no such curve, though single readings can be large or run the other way.
Reply using exactly one outcome from active, inactive

# input Hey, what did the test say about `COc1cc(CCc2cc(NC(=O)c3ccc(N4C[C@@H](C)N[C@@H](C)C4)cc3)n[nH]2)cc(OC)c1` ?
# output active

# input Hey, what did the test say about `CC(C)N(CC[C@H](c1ccccc1)c1cc(CO)ccc1O)C(C)C` ?
# output inactive

# input Hey, what did the test say about `COc1cc(N2CCC(C(N)=O)CC2)ccc1Nc1nc(N)c(Cl)c(Nc2ccccc2S(=O)(=O)C(C)C)n1` ?
# output active

# input Hey, what did the test say about `Cn1cc(-c2cnn3c(N)c(Br)c([C@H]4CCCNC4)nc23)cn1` ?
# output active

# input Hey, what did the test say about `O=C(O)C[C@H](O)C[C@H](O)C=Cc1c(C2CC2)nc2ccccc2c1-c1ccc(F)cc1` ?
# output active

# input Hey, what did the test say about `C[C@H](CCC(=O)O)[C@H]1CC[C@H]2[C@@H]3[C@H](O)C[C@@H]4C[C@H](O)CC[C@]4(C)[C@@H]3CC[C@]12C` ?
# output inactive

# input Hey, what did the test say about `C[C@@]12C(=O)OC(=O)[C@@]1(C)C1CCC2O1` ?
# output active

# input Hey, what did the test say about C#CCC(Cc1cnc2nc(N)nc(N)c2n1)c1ccc(C(=O)N[C@@H](CCC(=O)O)C(=O)O)cc1 (stereo partly drawn) ?
# output inactive

# input Hey, what did the test say about `COc1cc2c(Nc3ccc(Cl)c(Cl)c3F)ncnc2cc1OCC1C[C@@H]2CN(C)C[C@H]2C1` ?
# output active

# input Hey, what did the test say about `Cn1cc(CNCC2CCN(c3ncc(C(=O)NO)cn3)CC2)c2ccccc21` ?
# output active

# input Hey, what did the test say about `O=c1[nH]c(=O)n([C@H]2C[C@@H](O)[C@@H](CO)O2)cc1C=CBr` ?
# output inactive

# input Hey, what did the test say about `O=C(NNC(=O)c1ccc(CNS(=O)(=O)c2ccc(F)c(Cl)c2)cc1)c1ccccc1` ?
# output inactive

# input Hey, what did the test say about COC(=O)C1C2CC3c4[nH]c5cc(OC)ccc5c4CCN3CC2CC(OC(=O)c2cc(OC)c(OC)c(OC)c2)C1OC (stereo not drawn) ?
# output active

# input Hey, what did the test say about `CC(C)NC[C@@H](C(=O)N1CCN(c2ncnc3c2[C@H](C)C[C@H]3O)CC1)c1ccc(Cl)cc1` ?
# output active

# input Hey, what did the test say about `C[C@]12C=CC(=O)N[C@@H]1CC[C@H]1[C@H]3CC[C@@H](C(=O)Nc4cc(C(F)(F)F)ccc4C(F)(F)F)[C@@]3(C)CC[C@@H]12` ?
# output inactive

# input Hey, what did the test say about `COC(=O)[C@@H]1[C@H]2C[C@@H]3c4[nH]c5ccccc5c4CCN3C[C@@H]2CC[C@@H]1O` ?
# output inactive

# input Hey, what did the test say about `O=C1c2cccc(O)c2C(=O)c2c(O)cc(CO)cc21` ?
# output inactive

# input Hey, what did the test say about CCCCCCCN(CC)CCCC(O)c1ccc(NS(C)(=O)=O)cc1 (stereo not drawn) ?
# output active
